Experiment: plasmodial surface anion channel blockers, osmotic lysis – cell-based, P. falciparum Indochina, OD700, 1 h, primary screen (AID 1154)
Conditions: P. falciparum Indochina infected RBC osmotic lysis, higher = more signal, called active from +8 up or from −8 down
Listed below: z-score values for each entry.
Just the number, please, no unit after it.

Recorded z-score, per entry:
Compound	z-score
CC(C)(C)N1CC=CC23O[C@@H]4C=CCCOC(=O)C4[C@H]2C(=O)N(CCCCCCO)[C@@H]3C1=O (stereo partly drawn)	0.683
[N-]=[N+]=NCc1ccccc1[C@@H]1OC(c2ccc(OCCCO)cc2)=N[C@]1(Cc1ccccc1N=[N+]=[N-])C(=O)O	22.9
C=C(CCCC)C(=O)CC[C@@H](OC(=O)c1ccccc1-c1ccccc1C(=O)O)c1ccccc1OCCO	6.1

Continue with the compound presented below.
Param item = "CO[C@H]1O[C@H](CO)[C@@H](OC(=O)Nc2ccccc2)[C@H](OC(=O)Nc2ccccc2)[C@H]1OC(=O)Nc1ccccc1" ; retrieve measured z-score.
4.11

* * *

Measured z-score, listed per entry for reference.
Assay: compound effects on hepatocellular carcinoma cell viability – HepG2, calcein-AM fluorescence, 48 h, basal, profiling panel (AID 1164); note: test concentration not given here
Conditions: higher = more signal
Response field accepts a number only; no unit should be typed.

See these solved cases before continuing.
Compound	Value kind	Quantitative readout
O=C1O[C@@H](c2ccccc2)[C@@H](c2ccccc2)N2[C@@H](c3ccccc3OCCO)[C@]3(C(=O)Nc4ccc(C#CCCO)cc43)[C@@H](C(=O)NC[C@H](O)c3ccccc3)[C@H]12	z-score	0.997
C=C(C)[C@@H]1CC=C(C(O)C2C=CC3C(=O)N(c4ccccc4)C(=O)C3N2Nc2ccc([N+](=O)[O-])cc2)CC1 (stereo partly specified)	z-score	0.736
CC(C)N1C(=O)c2ccccc2[C@@H](C(=O)NCC(F)(F)F)[C@@H]1c1ccc(CO)cc1	z-score	0.569

Form field: reported z-score of CC(C)(C)OC(=O)CC[C@]1(C(=O)NCC(O)CO)N=C(c2ccc(OCCCO)cc2)O[C@H]1c1ccccc1N=[N+]=[N-] (stereo partly specified)
0.324

Value lookup for z-score; key = CC(C)OC(=O)CC(=O)CC(O)c1cccc([N+](=O)[O-])c1 (stereo unspecified)
0.729

Which z-score value belongs to "CC(C)NC(=O)[C@@H]1c2ccccc2C(=O)N(Cc2ccc(OC(F)(F)F)cc2)[C@H]1c1ccc(CO)cc1" ?
-0.315

* * *

Test: probe aLefty1 binding on compound microarray – biochemical, small-molecule microarray, 635/667 nm fluorescence, primary screen (AID 1153);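 note: score merges spot fluorescence with signal-to-noise ratio from the scanned slide images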
Conditions: higher = more signal
Kind request: treat 0.2 as inclusive, so composite z-score at 0.2 or higher is yes, anything lower is no.

For orientation, consider the following solved cases.
Compound	Assigned label
O=C1O[C@@H](c2ccccc2)[C@@H](c2ccccc2)N2[C@@H](c3ccc(OCCO)cc3)[C@]3(C(=O)Nc4ccc(C#CC5(O)CCCCCC5)cc43)[C@@H](C(=O)O)[C@H]12	no
O=C1N(Cc2ccccc2)c2ccccc2C[C@@]12COC(c1ccc(OCCCO)cc1)=N2	yes
CN(C)CCCCNC(=O)[C@H]1C[C@H]2C(=O)N3CCC[C@H]3C(=O)N2[C@H]1c1cccc(OCCO)c1	yes
Cc1ccc(C(C)CC(O)C2C=CC3C(=O)N(C)C(=O)C3N2Nc2ccccc2)o1 (stereo unspecified)	yes

Okay, now this compound:
Determine whether measured composite z-score meets or exceeds 0.2 for O=C1C2C=CC(C(O)c3ccc([N+](=O)[O-])cc3)N(Nc3ccccc3F)C2C(=O)N1c1ccccc1 (stereo unspecified)
no

* * *

composite z-score values by entry
Molecular target: Alpha-bungarotoxin (Bungarus multicinctus) (UniProt P60615)
Sequence (P60615 whole entry, looked up): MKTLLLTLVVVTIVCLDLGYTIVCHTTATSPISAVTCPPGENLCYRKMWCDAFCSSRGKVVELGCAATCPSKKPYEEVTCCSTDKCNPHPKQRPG
Test: compounds binding labelled alpha-BTX control protein – biochemical, small-molecule microarray, Alexa647 label, 635/667 nm fluorescence, artefact control for SMM control protein annotation, profiling panel (AID 1117)
Details: alpha-BTX-A647 binding fluorescence, higher = more signal
Just the number, please, no unit after it.

Compound	composite z-score
C=C1C(=O)C=C2CN(C(=O)c3ccccc3)[C@@](Cc3ccc(OC)cc3)(C(=O)OC)[C@@H]12	1.2
CC(C)C[C@@H]1NC(=O)[C@@H]2C[C@H](C(=O)NCCCCCCNC(=O)CS)[C@H](c3cccc(OCCO)c3)N2C1=O	2.02
CCOc1cc(C(O)C2C=CC3C(=O)N(c4ccccc4)C(=O)C3N2Nc2ccccc2F)ccc1O (stereo unspecified)	0.762
CC(C)C(=C=CC[C@H](O)c1ccccc1OCCO)C[C@H](O)COCc1ccccc1	0.257
CO[C@H]1O[C@H](CO)[C@@H](OC(=O)Nc2ccccc2)[C@H](OC(=O)Nc2ccccc2)[C@H]1OC(=O)Nc1ccccc1	1.05
O=C1c2ccccc2[C@@]2(Cc3ccccc3N(Cc3ccccc3)C2=O)[C@H](c2ccc(CO)cc2)N1Cc1ccccc1Cl	-0.0792

Which composite z-score value is on record for "C[C@]1(C(=O)O)c2ccccc2C(=O)N(Cc2cc(F)cc(C(F)(F)F)c2)[C@H]1c1ccc(CO)cc1" ?
-0.408

Give its composite z-score value. Item: "O=C1C[C@]2(c3ccc([N+](=O)[O-])cc3)C(=O)N(C3CC3)c3cc(CO)ccc3[C@H]2N1C1CCCCC1"
0.637

Recorded composite z-score of "COCCCNC(=O)[C@@]1(Sc2ccc(C)cc2)CC(=O)N(Cc2ccccc2C(F)(F)F)[C@@H]1c1ccc(CO)cc1I" , please.
-1.2

// query composite z-score value for entry "COC(=O)C(CC#Cc1ccc2c(c1)[C@]1(C(=O)N2)[C@H](c2ccccc2OCCO)N2[C@H](c3ccccc3)[C@H](c3ccccc3)OC(=O)[C@H]2[C@@H]1C(=O)N1CCc2cc(OC)c(OC)cc2C1)C(=O)OC"
0.647

So what does the record say about composite z-score for "COCCOC(=O)N1C(=O)[C@@]2(c3cc(C#CCCO)ccc31)[C@H](c1ccc(OCCO)cc1)N1[C@H](c3ccccc3)[C@H](c3ccccc3)OC(=O)[C@H]1[C@@H]2C(=O)N1CCCCCCC1" ?
2.3

Param item = CCCCN1CC=CC23O[C@@H]4/C=C\CCCOC(=O)C4[C@H]2C(=O)N(C(CO)C(C)C)[C@@H]3C1=O (stereo partly specified) ; retrieve measured composite z-score.
-0.838

I am curious: what composite z-score value has been reported for "C=C(CCCC)C(=O)CC[C@@H](OC(=O)c1ccccc1-c1ccccc1C(=O)O)c1ccccc1OCCO" ?
0.16

For CN(C)c1ccc(C(O)C2C=CC3C(=O)N(Cc4ccccc4)C(=O)C3N2n2cnnc2)cc1 (stereo unspecified) , what is its reported composite z-score?
0.255

Dear colleague, I am looking for the recorded composite z-score of the following compound: "C=CC[C@@]12N=C(c3ccc(OCCCO)cc3)O[C@@H]1c1ccccc1N(CCC)C2=O"
1.77

Name the recorded composite z-score for "CCCNC(=O)[C@@]1(Sc2ccc(C)cc2)CC(=O)N(Cc2ccccc2Cl)[C@@H]1c1ccc(CO)cc1I" .
0.461

* * *

Assay: small molecules captured by biotinylated probe aFGF10 – biochemical, small-molecule microarray, fluorescence 635/667, stem cell growth factor project, primary screen (AID 1071);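 note: score merges 667 nm spot intensity and signal to noise from triplicate slides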
Conditions: higher = more signal
Value kind: composite z-score
Answer with the value's number alone.

Any idea what its composite z-score is? The compound is CN1C(=O)C2C(C3CC3)C=C3CN(Cc4cccc(Cl)c4)[C@@H]([C@@H](O)Cc4ccccc4)C3C2C1=O (some centres not stated)
0.0719

Which composite z-score reading was recorded for the compound "O=C(NC1CC1)[C@@H]1c2ccccc2C(=O)N(Cc2ccc(OC(F)(F)F)cc2)[C@H]1c1ccc(CO)cc1" ?
-0.0789

Give the measured composite z-score of [N-]=[N+]=Nc1ccccc1[C@@H]1OC(c2ccc(OCCCO)cc2)=N[C@]1(CCS(=O)(=O)c1ccccc1)C(=O)NCC(O)CO (some centres not stated) .
0.0835

Given the entry O=C1NC(=O)C2C1C=CC(C(O)c1ccc([N+](=O)[O-])cc1)N2Nc1ccccn1 (configuration not stated) , report its measured composite z-score.
0.0525

Given the compound O=C(NCC(O)CO)C1N=C(c2ccc(OCCCO)cc2)N(c2ccccc2)O1 (configuration not stated) , what is its reported composite z-score?
0.643

Recorded composite z-score for "C=C(/C(=C/C[C@@H](OC(C)=O)c1cccc(OCCO)c1)c1cnc2ccccc2c1)C(C)C" , please?
0.76

What composite z-score value was documented for this compound, CCCCC(O)C1C=CC2C(=O)N(c3ccccc3)C(=O)C2N1Nc1ccc([N+](=O)[O-])cc1 (configuration not stated) ?
0.531

* * *

Target: Fibroblast growth factor 2 (Homo sapiens)
Assay: basic fibroblast growth factor binding to printed compounds – biochemical, small-molecule microarray, 635/667 nm fluorescence, primary screen (AID 1133)
Conditions: FGF2, fluorescence 635/667, higher = more signal
Each record's class is read off its composite z-score using these ranges: low = under -0.2, mid = from -0.2 up to 1, high = 1 and over

Please review the following examples before continuing.
Compound	Assigned label
CC(C)N1C(=O)C[C@@](C(=O)NCCN2CCOCC2)(c2ccc([N+](=O)[O-])cc2)[C@H]1c1ccc(CO)cc1	low
C=CCNC(=O)[C@H]1[C@@H]2C(=O)O[C@@H](c3ccccc3)[C@@H](c3ccccc3)N2[C@@H](c2ccc(OCCO)cc2)[C@]12C(=O)Nc1ccc(C#CC3(O)CCCCCC3)cc12	high
COc1ccc([Si](C)(C)[C@H]2[C@H](CCO)O[C@@]3(C(=O)N(Cc4ccc(NC(=O)[C@H](C)O)cc4)c4ccccc43)[C@@H]2C)cc1	mid

The entry to classify is CCCc1cc2c(n1CCc1ccc(Cl)cc1)C(C)C1CN(C(=O)c3ccccc3)C(C)(C(=O)OC)C21 (stereo unspecified) ; which class holds it?
low

For CC(=O)OCC1C2CC[C@H]3C(OCc4ccc(F)cc4C(F)(F)F)OC[C@]4(C)[C@H]3C2=C(CN4C(=O)OC(C)(C)C)[C@H](C)C1COC(C)=O (stereo partly specified) , which composite z-score bin applies?
low

Class? Entry: "O=C(NCc1ccccc1)[C@@H]1c2ccccc2C(=O)N(Cc2cc(C(F)(F)F)cc(C(F)(F)F)c2)[C@H]1c1ccc(CO)cc1"
high

Textbook exercise: identify the category of the compound given here, C=CCC(OC(C)=O)[C@@H]1[C@@H](N(Cc2ccc(-c3cccc(C(F)(F)F)c3)o2)C(=O)Cc2ccc(F)cc2)c2cc(OCCCO)ccc2N1C(=O)Cc1ccc2ccccc2c1 (stereo partly specified) , according to its measured value.
low

State the class of the compound shown: CCC(CC)C(O)C1C=CC2C(=O)N(c3ccccc3)C(=O)C2N1Nc1ccccc1F (stereo unspecified)
low

In plain terms, what class is "COc1ccc([Si](C)(C)[C@@H]2[C@@H](CC(=O)N3Cc4ccccc4C[C@H]3CO)O[C@]3(C(=O)N(Cc4ccc(N5CCOC5=O)cc4)c4ccccc43)[C@H]2C)cc1" ?
high

Each recorded value in this set is attributed to PubChem BioAssay.
